The reader will find IC50 measurements below, all made with FMN2 (Homo sapiens, UniProt Q9NZ56).
Sequence (Q9NZ56 1192-1722): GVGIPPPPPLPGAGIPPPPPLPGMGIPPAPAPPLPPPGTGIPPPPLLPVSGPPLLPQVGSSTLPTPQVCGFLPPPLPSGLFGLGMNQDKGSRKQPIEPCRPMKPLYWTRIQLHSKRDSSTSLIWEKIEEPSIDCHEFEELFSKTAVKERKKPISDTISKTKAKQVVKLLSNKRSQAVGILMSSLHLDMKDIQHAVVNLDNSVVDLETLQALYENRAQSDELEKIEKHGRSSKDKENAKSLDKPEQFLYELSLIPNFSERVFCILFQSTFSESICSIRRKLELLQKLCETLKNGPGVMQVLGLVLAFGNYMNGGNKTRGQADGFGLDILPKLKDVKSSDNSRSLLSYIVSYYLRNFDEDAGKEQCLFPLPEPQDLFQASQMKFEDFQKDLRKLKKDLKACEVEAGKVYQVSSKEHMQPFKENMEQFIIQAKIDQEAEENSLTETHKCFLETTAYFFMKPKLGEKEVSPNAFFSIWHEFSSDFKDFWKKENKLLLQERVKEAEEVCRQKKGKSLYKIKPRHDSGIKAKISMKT
Measurement Type: IC50 (µM)

>  <Structure Smiles String>
O=C1NC(=S)N(c2cccc(Br)c2)C(=O)C1=Cc1ccc(Br)o1

>  <Test Target>
FMN2 (Homo sapiens, UniProt Q9NZ56)

>  <Measurement Type>
IC50

>  <Bound Sign>
=

>  <Readout Number>
25

$$$$
>  <Structure Smiles String>
O=C1NC(=S)N(c2ccc(Br)cc2)C(=O)C1=Cc1ccc(Cl)o1

>  <Test Target>
FMN2 (Homo sapiens, UniProt Q9NZ56)

>  <Measurement Type>
IC50

>  <Bound Sign>
=

>  <Readout Number>
15

$$$$
>  <Structure Smiles String>
O=C1NC(=S)N(c2cccc(Br)c2)C(=O)C1=Cc1ccc(Cl)o1

>  <Test Target>
FMN2 (Homo sapiens, UniProt Q9NZ56)

>  <Measurement Type>
IC50

>  <Bound Sign>
=

>  <Readout Number>
11

$$$$
>  <Structure Smiles String>
O=C1NC(=O)N(c2cccc(Br)c2)C(=O)C1=Cc1ccco1

>  <Test Target>
FMN2 (Homo sapiens, UniProt Q9NZ56)

>  <Measurement Type>
IC50

>  <Bound Sign>
>

>  <Readout Number>
40

$$$$
>  <Structure Smiles String>
CN1C(=O)C(=Cc2ccco2)C(=O)N(c2cccc(Br)c2)C1=S

>  <Test Target>
FMN2 (Homo sapiens, UniProt Q9NZ56)

>  <Measurement Type>
IC50

>  <Bound Sign>
=

>  <Readout Number>
14

$$$$

====

Molecular target: FMNL3 (Homo sapiens, UniProt Q8IVF7)
Sequence (Q8IVF7 481-1028): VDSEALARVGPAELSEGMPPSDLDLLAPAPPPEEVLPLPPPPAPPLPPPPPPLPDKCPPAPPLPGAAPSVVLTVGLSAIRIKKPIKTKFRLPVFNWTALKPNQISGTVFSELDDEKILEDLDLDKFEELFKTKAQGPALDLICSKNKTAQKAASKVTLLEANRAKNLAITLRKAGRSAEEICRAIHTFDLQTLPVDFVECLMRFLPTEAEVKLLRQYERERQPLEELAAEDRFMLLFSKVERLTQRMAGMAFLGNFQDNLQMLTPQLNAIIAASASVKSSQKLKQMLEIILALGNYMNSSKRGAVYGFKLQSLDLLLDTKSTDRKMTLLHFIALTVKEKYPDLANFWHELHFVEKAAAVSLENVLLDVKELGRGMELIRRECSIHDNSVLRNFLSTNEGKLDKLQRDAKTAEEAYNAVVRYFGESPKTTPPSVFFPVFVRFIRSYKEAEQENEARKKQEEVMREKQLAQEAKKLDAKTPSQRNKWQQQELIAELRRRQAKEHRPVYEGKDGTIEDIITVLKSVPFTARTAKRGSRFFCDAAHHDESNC
pIC50: −log10 of the molar value.
Rule: pIC50 under 5 gives rule not met, otherwise rule met.

>  <Structure Smiles String>
COc1ccc(N2C(=O)C(=Cc3ccco3)C(=O)NC2=S)cc1

>  <Test Target>
FMNL3 (Homo sapiens, UniProt Q8IVF7)

>  <Assigned Category>
rule not met

$$$$
>  <Structure Smiles String>
CCN1C(=O)C(=Cc2ccco2)C(=O)N(c2cccc(Br)c2)C1=S

>  <Test Target>
FMNL3 (Homo sapiens, UniProt Q8IVF7)

>  <Assigned Category>
rule not met

$$$$
>  <Structure Smiles String>
CN1C(=O)C(=Cc2ccco2)C(=O)N(c2cccc(Br)c2)C1=S

>  <Test Target>
FMNL3 (Homo sapiens, UniProt Q8IVF7)

>  <Assigned Category>
rule met

$$$$
>  <Structure Smiles String>
O=C1NC(=S)N(c2ccc(Br)cc2)C(=O)C1=Cc1ccco1

>  <Test Target>
FMNL3 (Homo sapiens, UniProt Q8IVF7)

>  <Assigned Category>
rule met

$$$$

====

List of IC50 values.
Target: FMNL3 (Homo sapiens, UniProt Q8IVF7)
Measurement Type: IC50 (µM)

>  <Structure Smiles String>
O=C1C(=Cc2ccco2)C(=O)N(c2cccc(Br)c2)C(=S)N1c1ccccc1

>  <Test Target>
FMNL3 (Homo sapiens, UniProt Q8IVF7)

>  <Unit String>
µM

>  <Bound Sign>
=

>  <Readout Number>
4

$$$$
>  <Structure Smiles String>
O=C1NC(=S)N(c2ccccc2)C(=O)C1=Cc1ccco1

>  <Test Target>
FMNL3 (Homo sapiens, UniProt Q8IVF7)

>  <Unit String>
µM

>  <Bound Sign>
>

>  <Readout Number>
40

$$$$
>  <Structure Smiles String>
COc1ccc(N2C(=O)C(=Cc3ccc(Cl)o3)C(=O)NC2=S)cc1

>  <Test Target>
FMNL3 (Homo sapiens, UniProt Q8IVF7)

>  <Unit String>
µM

>  <Bound Sign>
=

>  <Readout Number>
3

$$$$
>  <Structure Smiles String>
O=C1NC(=S)N(c2cccc(Br)c2)C(=O)C1=Cc1ccc(Br)o1

>  <Test Target>
FMNL3 (Homo sapiens, UniProt Q8IVF7)

>  <Unit String>
µM

>  <Bound Sign>
=

>  <Readout Number>
14

$$$$
>  <Structure Smiles String>
O=C1NC(=O)N(c2cccc(Br)c2)C(=O)C1=Cc1ccco1

>  <Test Target>
FMNL3 (Homo sapiens, UniProt Q8IVF7)

>  <Unit String>
µM

>  <Bound Sign>
>

>  <Readout Number>
40

$$$$
>  <Structure Smiles String>
O=C1NC(=S)N(c2cccc(Br)c2)C(=O)C1=Cc1ccc(Cl)o1

>  <Test Target>
FMNL3 (Homo sapiens, UniProt Q8IVF7)

>  <Unit String>
µM

>  <Bound Sign>
=

>  <Readout Number>
7

$$$$
>  <Structure Smiles String>
COc1ccc(N2C(=O)C(=Cc3cc(Br)co3)C(=O)NC2=S)cc1

>  <Test Target>
FMNL3 (Homo sapiens, UniProt Q8IVF7)

>  <Unit String>
µM

>  <Bound Sign>
=

>  <Readout Number>
4

$$$$
>  <Structure Smiles String>
O=C1NC(=S)N(c2cccc(Br)c2)C(=O)C1=Cc1ccc[nH]1

>  <Test Target>
FMNL3 (Homo sapiens, UniProt Q8IVF7)

>  <Unit String>
µM

>  <Bound Sign>
>

>  <Readout Number>
40

$$$$
>  <Structure Smiles String>
Cc1ccc(C=C2C(=O)NC(=S)N(c3cccc(Br)c3)C2=O)o1

>  <Test Target>
FMNL3 (Homo sapiens, UniProt Q8IVF7)

>  <Unit String>
µM

>  <Bound Sign>
>

>  <Readout Number>
40

$$$$

====

Biological target: DIAPH2 (Homo sapiens, UniProt O60879)
Sequence (O60879 553-1096 isoform O60879-2): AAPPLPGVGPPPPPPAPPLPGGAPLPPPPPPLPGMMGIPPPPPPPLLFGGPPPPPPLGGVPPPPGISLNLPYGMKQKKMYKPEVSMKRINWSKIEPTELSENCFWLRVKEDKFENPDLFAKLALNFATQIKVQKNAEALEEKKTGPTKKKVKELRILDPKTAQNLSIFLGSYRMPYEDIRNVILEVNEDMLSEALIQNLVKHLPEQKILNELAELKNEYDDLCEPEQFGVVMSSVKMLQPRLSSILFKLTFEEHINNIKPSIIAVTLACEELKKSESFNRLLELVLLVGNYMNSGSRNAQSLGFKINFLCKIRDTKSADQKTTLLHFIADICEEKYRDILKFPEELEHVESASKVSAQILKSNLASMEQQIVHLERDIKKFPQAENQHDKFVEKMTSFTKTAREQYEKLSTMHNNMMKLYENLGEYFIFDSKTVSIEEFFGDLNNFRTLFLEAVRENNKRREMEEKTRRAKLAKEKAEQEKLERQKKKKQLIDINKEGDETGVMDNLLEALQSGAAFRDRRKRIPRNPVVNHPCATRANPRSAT
pIC50: −log10 of the molar value.
List of pIC50 values.

>  <Molecule>
COc1ccc(N2C(=O)C(=Cc3ccco3)C(=O)NC2=S)cc1

>  <Bound Sign>
=

>  <pIC50>
4.92

$$$$
>  <Molecule>
O=C1NC(=S)N(c2cccc(Br)c2)C(=O)C1=Cc1cccs1

>  <Bound Sign>
<

>  <pIC50>
4.40

$$$$
>  <Molecule>
O=C1NC(=S)N(c2cccc(Br)c2)C(=O)C1=Cc1ccc(Cl)o1

>  <Bound Sign>
=

>  <pIC50>
5.40

$$$$
>  <Molecule>
O=C1NC(=S)N(c2ccccc2)C(=O)C1=Cc1ccco1

>  <Bound Sign>
=

>  <pIC50>
4.40

$$$$
>  <Molecule>
O=C1NC(=S)N(c2cccc(Br)c2)C(=O)/C1=C/C=C/c1ccco1

>  <Bound Sign>
=

>  <pIC50>
4.70

$$$$
>  <Molecule>
O=C1NC(=S)N(c2cccc(Br)c2)C(=O)C1=Cc1ccc[nH]1

>  <Bound Sign>
<

>  <pIC50>
4.40

$$$$
>  <Molecule>
CN1C(=O)C(=Cc2ccco2)C(=O)N(c2cccc(Br)c2)C1=S

>  <Bound Sign>
=

>  <pIC50>
5.30

$$$$
>  <Molecule>
O=C1NC(=S)N(c2cccc(Br)c2)C(=O)C1=Cc1ccco1 [Compound 1, reference compound]

>  <Bound Sign>
=

>  <pIC50>
5.22

$$$$
>  <Molecule>
COc1ccc(N2C(=O)C(=Cc3ccc(Br)o3)C(=O)NC2=S)cc1

>  <Bound Sign>
=

>  <pIC50>
5.70

$$$$

====

Test system: human formins
Test: pyrene-actin polymerization assay, panel of human formin FFC fragments
Assay type: biochemical
Details: five formin FFC fragments (DIAPH1, DIAPH2, INF2, FMNL3, FMN2)
Measurement Type: inhibitory activity against formins tested (in words)

>  <Structure Smiles String>
O=C1NC(=S)N(c2cccc(Br)c2)C(=O)C1=Cc1ccc(Cl)o1

>  <Result>
well tolerated

$$$$
>  <Structure Smiles String>
CN1C(=O)C(=Cc2ccco2)C(=O)N(c2cccc(Br)c2)C1=S

>  <Result>
well tolerated

$$$$

====

Target: DIAPH1 (Homo sapiens)
Sequence (O60610 769-1222 limits assumed): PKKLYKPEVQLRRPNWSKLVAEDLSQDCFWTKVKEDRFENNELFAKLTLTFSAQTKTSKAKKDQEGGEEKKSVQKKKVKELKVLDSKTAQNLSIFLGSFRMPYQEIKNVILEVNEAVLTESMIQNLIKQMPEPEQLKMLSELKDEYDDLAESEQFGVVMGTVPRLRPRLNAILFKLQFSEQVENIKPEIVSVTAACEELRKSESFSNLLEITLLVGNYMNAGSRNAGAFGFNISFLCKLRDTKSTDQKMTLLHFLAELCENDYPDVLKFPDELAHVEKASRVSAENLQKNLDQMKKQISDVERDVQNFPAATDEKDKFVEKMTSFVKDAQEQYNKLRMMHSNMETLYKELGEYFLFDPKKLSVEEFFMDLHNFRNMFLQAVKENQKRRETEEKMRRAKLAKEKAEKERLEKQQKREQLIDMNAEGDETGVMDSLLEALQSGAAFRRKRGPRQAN
The label yes is reserved for IC50 strictly under 10 µM; no covers values equal to or above it.

>  <Compound>
O=C1NC(=O)N(c2cccc(Br)c2)C(=O)C1=Cc1ccco1

>  <Assigned Category>
no

$$$$
>  <Compound>
O=C1NC(=S)N(c2ccc(Br)cc2)C(=O)C1=Cc1ccco1

>  <Assigned Category>
yes

$$$$
>  <Compound>
Cc1ccc(C=C2C(=O)NC(=S)N(c3cccc(Br)c3)C2=O)o1

>  <Assigned Category>
no

$$$$
>  <Compound>
O=C1NC(=S)N(c2cccc(Br)c2)C(=O)C1=Cc1ccc[nH]1

>  <Assigned Category>
no

$$$$
>  <Compound>
O=C1C(=Cc2ccco2)C(=O)N(c2cccc(Br)c2)C(=S)N1c1ccccc1

>  <Assigned Category>
no

$$$$
>  <Compound>
O=C1NC(=S)N(c2cccc(Br)c2)C(=O)C1=Cc1ccc(Cl)o1

>  <Assigned Category>
no

$$$$
>  <Compound>
COc1ccc(N2C(=O)C(=Cc3ccc(Cl)o3)C(=O)NC2=S)cc1

>  <Assigned Category>
yes

$$$$
>  <Compound>
CCN1C(=O)C(=Cc2ccco2)C(=O)N(c2cccc(Br)c2)C1=S

>  <Assigned Category>
no

$$$$
>  <Compound>
O=C1NC(=S)N(c2cccc(Br)c2)C(=O)C1=Cc1cccs1

>  <Assigned Category>
no

$$$$
>  <Compound>
O=C1NC(=S)N(c2cccc(Br)c2)C(=O)C1=Cc1ccco1 [Compound 1, reference compound]

>  <Assigned Category>
no

$$$$
>  <Compound>
O=C1NC(=S)N(c2ccccc2)C(=O)C1=Cc1ccco1

>  <Assigned Category>
no

$$$$
>  <Compound>
O=C1NC(=S)N(c2ccc(Br)cc2)C(=O)C1=Cc1ccc(Cl)o1

>  <Assigned Category>
no

$$$$
>  <Compound>
COc1ccc(N2C(=O)C(=Cc3ccco3)C(=O)NC2=S)cc1

>  <Assigned Category>
no

$$$$
>  <Compound>
O=C1NC(=S)N(c2cccc(Br)c2)C(=O)C1=Cc1ccc(Br)o1

>  <Assigned Category>
no

$$$$
>  <Compound>
COc1ccc(N2C(=O)C(=Cc3ccc(Br)o3)C(=O)NC2=S)cc1

>  <Assigned Category>
yes

$$$$
>  <Compound>
CN1C(=O)C(=Cc2ccco2)C(=O)N(c2cccc(Br)c2)C1=S

>  <Assigned Category>
no

$$$$
